target: Cdk2(H71C) (C177A) (Homo sapiens, UniProt P24941, C177A/H71C); construct: poly-histidine; made in house; host or cells: E. coli; assay: Kinetic thiol consumption assay with Cdk2 mutant H71C; type: binding; conditions: Protein: Cdk2; cysteine position H71C; additional mutation C177A; in h^-1
For each entry below, report its Rate constant with Cdk2 H71C value.
Answers are plain numbers.

Completed entries (count: 5):
C=CC(=O)N1CC(CCN2CCCC2=O)c2ccccc21 (stereo not drawn) [CA-089]	0.163
C=CC(=O)N1CCCN(Cc2noc(C3CC3)n2)CC1 [CA-079]	0.002765
C=CC(=O)N(c1ccc2c(c1)OCCO2)C1CC1 [CA-167]	0.003628
C=CC(=O)Nc1ccc2c(c1)OC1(CCCC1)O2 [CA-054]	0.004426
C=CC(=O)Nc1ccc2nc(C)[nH]c2c1 [EL-1109]	0.004838

// batch mode: one Rate constant with Cdk2 H71C value per listed entry
1. C=CC(=O)N1CCn2c(Cc3ccccc3)nnc2C1 [CA-092]
2. C=CC(=O)N1CCCC1CC1CC2CCC1C2 (stereo not drawn) [CA-087]
3. C=CC(=O)N1CCCC1c1cnc2ccccc2c1 (stereo not drawn) [EL-1064]
4. C=CC(=O)N1CCCN2C(=O)CCC12c1ccc(OC)cc1 (stereo not drawn) [EL-1168]
5. C=CC(=O)N(C)C1C2CCOC2C1(C)C (stereo not drawn) [CA-182]
6. C=CC(=O)Nc1ccccc1N1CCOCC1 [CA-030]

Solution:
[0.2247, 0.3006, 0.01034, 0.01145, 0.002021, 0.002204]
